Source: ChEMBL document CHEMBL5058564

Test system: HEK-293T
Test: Incucyte cell viability with HEK293T; note: unitless GR value; below 1 slowed growth and below 0 cell loss
Format: toxicity, cell-based
Conditions: human, 6 h, 10 µM, compound concentration 10 uM, replicate number 1, timepoint 6 hours
Where a SMILES comes first, the peptide text is derived from it. [ ]: non-standard residue; d: D form. Arg(Me) = CNC(=N)NCCC[C@H](N)C(=O)O; d3Pal = N[C@H](Cc1cccnc1)C(=O)O; azaGly = NNC(=O)O
Class assignment keyed on Growth Rate, ranges range A (below -0.3), range B (-0.3 to below 0.5), range C (0.5 or more)

>  <Molecule>
Cc1ccccc1C#Cc1ccc(CCC(=O)O)cc1

>  <Assigned Category>
range C

$$$$
>  <Molecule>
CN(c1ncccc1CNc1ccnc(-c2cc3cc(Cl)ccc3[nH]2)n1)S(C)(=O)=O

>  <Assigned Category>
range A

$$$$
>  <Molecule>
Oc1c(CN2CCN(c3ccccn3)CC2)cc(Cl)c2cccnc12

>  <Assigned Category>
range A

$$$$
>  <Molecule>
CCCCC[C@H](O)/C=C/[C@H]1[C@H](O)CC(=O)[C@@H]1CCCCCCC(=O)O

>  <Assigned Category>
range C

$$$$
>  <Molecule>
CCCN1CCC[C@@H]2Cc3n[nH]cc3C[C@H]21.Cl [QUINPIROLE HYDROCHLORIDE]

>  <Assigned Category>
range B

$$$$
>  <Molecule>
CC[C@H]1CN2CCc3cc(OC)c(OC)cc3[C@@H]2C[C@@H]1C[C@H]1NCCc2cc(OC)c(OC)cc21

>  <Assigned Category>
range A

$$$$
>  <Molecule>
CC(C)n1cc(-c2ccc(N3CCN(C)CC3)c(NC(=O)c3ccc(-c4ccncc4)o3)c2)cn1

>  <Assigned Category>
range B

$$$$
>  <Molecule>
Cn1cnc(-c2cc3nccc(Oc4ccc(NC(=S)NC(=O)Cc5ccccc5)cc4F)c3s2)c1

>  <Assigned Category>
range A

$$$$
>  <Molecule>
CCCN(CCC)[C@@H]1CCc2ccc3[nH]c(C#N)cc3c2C1.Cl

>  <Assigned Category>
range C

$$$$
>  <Molecule>
COc1ccc2nc3ccc(OC)cc3c(SCCCN)c2c1.Cl

>  <Assigned Category>
range A

$$$$
>  <Molecule>
CNC(=N)NCCC[C@H](NC(=O)[C@H](CC(C)C)NC(=O)NNC(=O)[C@H](Cc1ccccc1)NC(=O)[C@H](CO)NC(=O)[C@H](CC(N)=O)NC(=O)[C@@H](Cc1cccnc1)NC(=O)[C@H](N)Cc1ccc(O)cc1)C(=O)NCC(N)=O [KISS1-543] (H-[dY][d3Pal]NSF[azaGly]L[Arg(Me)]G-NH2)

>  <Assigned Category>
range C

$$$$
>  <Molecule>
O=C(Nc1cc(-c2cn[nH]c2)ccc1N1CCOCC1)c1ccc(-c2ccc3ncccc3c2)o1

>  <Assigned Category>
range B

$$$$
>  <Molecule>
CNC[C@H](O)c1ccc(O)c(O)c1 [EPINEPHRINE]

>  <Assigned Category>
range C

$$$$
>  <Molecule>
OCc1cc(C(O)CNCCCCCCOCCCCc2ccccc2)ccc1O (configuration not stated)

>  <Assigned Category>
range B

$$$$
>  <Molecule>
CSc1ccccc1N1CCN(CCCCCC(=O)NC2CCCc3ccccc32)CC1.Cl (configuration not stated)

>  <Assigned Category>
range B

$$$$
>  <Molecule>
O=C(Nc1cc(C(F)(F)F)ccc1N1CCN(Cc2ccccn2)CC1)c1ccc(-c2ccncc2)o1

>  <Assigned Category>
range B

$$$$
